target: Tumor necrosis factor (Homo sapiens, UniProt P01375); assay: Binding affinity to human GST-tagged TNF extracellular domain expressed in Escherichia coli BL21(DE3)pLysS cells by fluorescence spectrophotometric analysis; conditions: read-out: Kd
Sequence (P01375 whole entry, the tested form may be a part): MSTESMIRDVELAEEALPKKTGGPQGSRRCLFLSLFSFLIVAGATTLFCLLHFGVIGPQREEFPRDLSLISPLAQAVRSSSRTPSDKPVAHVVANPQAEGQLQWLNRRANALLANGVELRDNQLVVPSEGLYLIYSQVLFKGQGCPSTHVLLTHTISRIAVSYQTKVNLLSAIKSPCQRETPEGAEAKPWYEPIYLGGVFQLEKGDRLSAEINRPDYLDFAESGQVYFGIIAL
recorded_metric: Kd (µM)
One number for each entry, in µM.

As a guide, the following entries are already answered.
INSERT INTO assay_data (chemical_structure, meas_value) VALUES
  ('O=C(c1coc2ccccc2c1=O)N1CCN(C(=O)c2cn(S(=O)(=O)c3cccc([N+](=O)[O-])c3)c3ccccc23)CC1', 16.8),
  ('CN(CCN(C)C(=O)c1cn(-c2cccc([N+](=O)[O-])c2)c2ccccc12)C(=O)c1coc2ccccc2c1=O', 12.2),
  ('CN(CCN(C)C(=O)c1cn(-c2cccc(C(F)(F)F)c2)c2ccc([N+](=O)[O-])cc12)C(=O)c1coc2ccccc2c1=O', 13.3);

Determine from records and report Kd for "CN(CCN(C)C(=O)c1cn(S(=O)(=O)c2ccccc2)c2ccccc12)C(=O)c1cccs1" 8.22

====

target: Tumor necrosis factor (Homo sapiens, UniProt P01375); assay: Binding affinity to human GST-tagged TNF extracellular domain expressed in Escherichia coli BL21(DE3)pLysS cells by fluorescence spectrophotometric analysis; details: read-out: Kd
recorded_metric: pKd
Give bare numbers, as −log10 of the molar value.

INSERT INTO measurements (chemical_structure, assay_target, meas_value) VALUES
  ('Nc1cccc(-n2cc(C(=O)N3CCN(C(=O)c4coc5ccccc5c4=O)CC3)c3ccccc32)c1', 'Tumor necrosis factor (Homo sapiens, UniProt P01375)', 4.85),
  ('Cc1ccc2occ(CN(C)CCN(C)Cc3cn(-c4cccc(C(F)(F)F)c4)c4ccccc34)c(=O)c2c1', 'Tumor necrosis factor (Homo sapiens, UniProt P01375)', 4.73);

// input: 2 molecules below; output: pKd for each
1. O=C(c1ccccc1F)N1CCN(C(=O)c2c[nH]c3ccc([N+](=O)[O-])cc23)CC1
2. O=C(c1coc2ccccc2c1=O)N1CCN(C(=O)c2cn(-c3cccc([N+](=O)[O-])c3)c3ccccc23)CC1

4.75
4.60

====

target: Tumor necrosis factor (Homo sapiens); experiment: Binding affinity to human GST-tagged TNF extracellular domain expressed in Escherichia coli BL21(DE3)pLysS cells by fluorescence spectrophotometric analysis; conditions: read-out: Kd
Binary label based on Kd with cut-off 7 µM: below gives YES, not below gives NO.

Some solved cases for reference:
INSERT INTO assay_data (chemical_structure, class_assignment) VALUES
  ('Cc1cc2occ(CN3CCN(Cc4cn(-c5cccc(C(F)(F)F)c5)c5ccccc45)CC3)c(=O)c2cc1C', 'NO'),
  ('O=C(c1cn(-c2cccc(C(F)(F)F)c2)c2ccccc12)N1CCN(C(=O)n2ccnc2)CC1', 'NO'),
  ('CN(CCN(C)C(=O)c1cn(-c2cccc(N)c2)c2ccccc12)C(=O)c1coc2ccccc2c1=O', 'NO'),
  ('O=C(c1ccccc1)N1CCN(Cc2cn(-c3cccc(C(F)(F)F)c3)c3ccccc23)CC1', 'YES'),
  ('O=C(c1ccccc1)N1CCN(C(=O)c2cn(-c3cccc(C(F)(F)F)c3)c3ccccc23)CC1', 'NO');

Bench note: check whether "CN(CCN(C)C(=O)c1cn(S(=O)(=O)c2ccccc2)c2ccccc12)C(=O)c1ccccc1" shows Kd below 7 µM NO

Find out if reported Kd for "CN(CCN(C)C(=O)c1cn(S(=O)(=O)c2cccc([N+](=O)[O-])c2)c2ccccc12)C(=O)c1coc2ccccc2c1=O" is less than 7 µM YES

====

molecular target: Tumor necrosis factor (Homo sapiens, UniProt P01375); experiment: Binding affinity to recombinant human TNF assessed as inhibition of TNF-TNFR1 interaction incubated for 1 hr by ELISA
Task for the reader: assign each of the following compounds its reported IC50.
Numbers only, in µM.

INSERT INTO results (chemical_structure, recorded_metric, meas_value) VALUES
  ('Cc1ccc2occ(CN(C)CCN(C)Cc3cn(-c4cccc(C(F)(F)F)c4)c4ccccc34)c(=O)c2c1', 'IC50', 10);

Please look at the items below and tell me IC50 for each one, in order.
1. O=C(NCCCNC(=O)c1cn(S(=O)(=O)c2ccccc2)c2ccccc12)c1coc2ccccc2c1=O
2. O=C(c1ccccc1)N1CCN(Cc2cn(-c3cccc(C(F)(F)F)c3)c3ccccc23)CC1
3. O=C(c1coc2ccccc2c1=O)N1CCN(Cc2cn(-c3cccc(C(F)(F)F)c3)c3ccccc23)CC1
4. CN(CCN(C)C(=O)c1cn(S(=O)(=O)c2cccc([N+](=O)[O-])c2)c2ccccc12)C(=O)c1coc2ccccc2c1=O
5. Nc1cccc(-n2cc(C(=O)N3CCN(C(=O)c4coc5ccccc5c4=O)CC3)c3ccccc32)c1
6. Cc1cc2occ(CN3CCN(Cc4cn(-c5cccc(C(F)(F)F)c5)c5ccccc45)CC3)c(=O)c2cc1C

[40, 20, 20, 40, 20, 15]

Hi! Can you tell me IC50 for each of these compounds?
1. O=C(c1coc2ccccc2c1=O)N1CCN(C(=O)c2cn(-c3cccc([N+](=O)[O-])c3)c3ccc([N+](=O)[O-])cc23)CC1
2. CN(CCN(C)C(=O)c1cn(S(=O)(=O)c2cccc(N)c2)c2ccccc12)C(=O)c1coc2ccccc2c1=O
3. Nc1cccc(-n2cc(C(=O)N3CCN(C(=O)c4coc5ccccc5c4=O)CC3)c3cc(N)ccc32)c1
4. O=C(c1coc2ccccc2c1=O)N1CCN(C(=O)c2cn(S(=O)(=O)c3ccccc3)c3ccccc23)CC1
5. O=C(c1coc2ccccc2c1=O)N1CCN(C(=O)c2cn(S(=O)(=O)c3cccc([N+](=O)[O-])c3)c3ccccc23)CC1
6. O=C(c1ccc2ccccc2c1)N1CCN(Cc2cn(-c3cccc(C(F)(F)F)c3)c3ccccc23)CC1
7. Nc1cccc(S(=O)(=O)n2cc(C(=O)N3CCN(C(=O)c4coc5ccccc5c4=O)CC3)c3ccccc32)c1

[20, 20, 40, 40, 40, 40, 40]

Return the recorded IC50 value; entry: "Cc1ccc2occ(CN3CCN(Cc4cn(-c5cccc(C(F)(F)F)c5)c5ccccc45)CC3)c(=O)c2c1" 15

====

target: Tumor necrosis factor (Homo sapiens); test: Binding affinity to human GST-tagged TNF extracellular domain expressed in Escherichia coli BL21(DE3)pLysS cells by fluorescence spectrophotometric analysis; details: read-out: Kd
Kindly state pKd for each of the entries shown.
Numbers only, as −log10 of the molar value.

INSERT INTO assay_data (chemical_structure, meas_value) VALUES
  ('Nc1cccc(-n2cc(C(=O)N3CCN(C(=O)c4coc5ccccc5c4=O)CC3)c3cc(N)ccc32)c1', 4.81),
  ('O=C(c1coc2ccccc2c1=O)N1CCN(C(=O)c2cn(S(=O)(=O)c3ccccc3)c3ccccc23)CC1', 4.89),
  ('O=C(c1coc2ccccc2c1=O)N1CCN(Cc2cn(-c3cccc(C(F)(F)F)c3)c3ccccc23)CC1', 5.79),
  ('Cc1cc2occ(C(=O)N3CCN(C(=O)c4cn(-c5cccc(C(F)(F)F)c5)c5ccccc45)CC3)c(=O)c2cc1C', 5.29),
  ('O=C(NCCCNC(=O)c1cn(S(=O)(=O)c2ccccc2)c2ccccc12)c1coc2ccccc2c1=O', 5.28),
  ('O=C(c1cccs1)N1CCN(C(=O)c2c[nH]c3ccc([N+](=O)[O-])cc23)CC1', 4.97);

Consider the record given below.
Determine from records and report pKd for "Cc1cc2occ(C(=O)N(C)CCN(C)C(=O)c3cn(-c4cccc(C(F)(F)F)c4)c4ccccc34)c(=O)c2cc1C" 5.60

====

biological target: Tumor necrosis factor (Homo sapiens, UniProt P01375); assay: Binding affinity to human GST-tagged TNF extracellular domain expressed in Escherichia coli BL21(DE3)pLysS cells by fluorescence spectrophotometric analysis; settings: read-out: Kd
Exercise: for every item that follows, state its recorded pKd.
Answers are plain numbers, as −log10 of the molar value.

INSERT INTO measurements (chemical_structure, assay_target, meas_value) VALUES
  ('CN(CCN(C)C(=O)c1cn(S(=O)(=O)c2cccc(N)c2)c2ccccc12)C(=O)c1coc2ccccc2c1=O', 'Tumor necrosis factor (Homo sapiens, UniProt P01375)', 6.02),
  ('O=C(c1coc2ccccc2c1=O)N1CCN(C(=O)c2cn(-c3cccc([N+](=O)[O-])c3)c3ccc([N+](=O)[O-])cc23)CC1', 'Tumor necrosis factor (Homo sapiens, UniProt P01375)', 6.13),
  ('Nc1cccc(S(=O)(=O)n2cc(C(=O)N3CCN(C(=O)c4coc5ccccc5c4=O)CC3)c3ccccc32)c1', 'Tumor necrosis factor (Homo sapiens, UniProt P01375)', 5.26);

Return reported pKd values for all items listed beneath this line.
1. CN(CCN(C)C(=O)c1cn(S(=O)(=O)c2ccccc2)c2ccccc12)C(=O)c1ccc2ccccc2c1
2. Cc1ccc2occ(CN3CCN(Cc4cn(-c5cccc(C(F)(F)F)c5)c5ccccc45)CC3)c(=O)c2c1
3. CN(CCN(C)C(=O)c1cn(-c2cccc(C(F)(F)F)c2)c2ccc([N+](=O)[O-])cc12)C(=O)c1ccccc1F

1: 4.60; 2: 5.32; 3: 4.99

I need pKd for every entry listed below, if you could help.
1. O=C(c1ccc2ccccc2c1)N1CCN(Cc2cn(-c3cccc(C(F)(F)F)c3)c3ccccc23)CC1
2. O=C(NCCCCNC(=O)c1cn(S(=O)(=O)c2ccccc2)c2ccccc12)c1ccc2ccccc2c1

[5.11, 4.73]

The reported measurements were obtained from ChEMBL document CHEMBL3739283.
